Reference for the values: the RNAGym collection of RNA variant scans (doi:10.1073/pnas.2313332121)

B1: TPR 5TU (parent)
chain: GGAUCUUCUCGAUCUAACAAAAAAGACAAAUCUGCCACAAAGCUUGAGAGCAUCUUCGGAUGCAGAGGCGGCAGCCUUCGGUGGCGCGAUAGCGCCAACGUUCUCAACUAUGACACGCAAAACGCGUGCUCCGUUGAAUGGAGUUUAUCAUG

# Variants of: B1
# assay.method.text: polymerase ribozyme fitness, log enrichment relative to wild type (log ratio); higher = more active; in vitro selection for triplet polymerase activity
This sample holds only a part of the variants without activity.
Kindly supply the reported polymerase ribozyme fitness (log ratio) values for the records listed here.

Item A19C C72A A107U G143A has what recorded polymerase ribozyme fitness (log ratio)? ≤ -4.2

Item A17C G59C U102G C123A has what recorded polymerase ribozyme fitness (log ratio)? -2.05

Item A41U U61A G68U A107C U145G has what recorded polymerase ribozyme fitness (log ratio)? ≤ -4.2

Item A20U U45A G48U A64G A137U has what recorded polymerase ribozyme fitness (log ratio)? ≤ -4.2

Item C79G C87U G100U has what recorded polymerase ribozyme fitness (log ratio)? -2.91

Item A24C C72A C103A U109G G126U has what recorded polymerase ribozyme fitness (log ratio)? ≤ -4.2

Item A39C G58A G59C has what recorded polymerase ribozyme fitness (log ratio)? -1.49

Item U55A C114U has what recorded polymerase ribozyme fitness (log ratio)? -2.21

Item A37U A52G G83A G84A A115U has what recorded polymerase ribozyme fitness (log ratio)? ≤ -4.2

Item C10U U44A U102G A119C A121G A137C G143A has what recorded polymerase ribozyme fitness (log ratio)? ≤ -4.2

Item G48C C85A A142U has what recorded polymerase ribozyme fitness (log ratio)? ≤ -4.2
